// data source = paper PMC9441068

Molecular target: human eIF4A1 (Homo sapiens, UniProt P60842)
Sequence (P60842 2-406): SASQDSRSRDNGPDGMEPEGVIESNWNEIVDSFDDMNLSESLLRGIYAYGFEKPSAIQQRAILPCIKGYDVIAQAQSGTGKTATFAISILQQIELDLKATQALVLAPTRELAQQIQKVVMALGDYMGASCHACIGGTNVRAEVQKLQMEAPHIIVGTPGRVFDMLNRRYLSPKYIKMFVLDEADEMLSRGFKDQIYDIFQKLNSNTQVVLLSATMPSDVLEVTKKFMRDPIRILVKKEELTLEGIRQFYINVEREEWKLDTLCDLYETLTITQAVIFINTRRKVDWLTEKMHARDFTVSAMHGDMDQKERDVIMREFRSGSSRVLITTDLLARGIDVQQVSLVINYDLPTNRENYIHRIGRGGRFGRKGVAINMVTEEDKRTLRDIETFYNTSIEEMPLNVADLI
Assay: malachite green phosphate release (RNA-dependent ATPase) assay
Assay type: biochemical
metric: IC50 (nM)
Numbers only, in nM.

{"smiles.record": "CC(=NNC(=O)c1nnn(-c2nonc2N)c1CSc1nncn1C)c1cccc(O)c1", "target": "human eIF4A1 (Homo sapiens, UniProt P60842)", "measurement.units": "nM", "IC50": 3000}

-- ask I'd like to know its IC50. The compound in question is CC(=NNC(=O)c1nnn(-c2nonc2N)c1CSc1nncn1C)c1ccccc1O
-- reply 0.209
